- assay.name: in vitro
- assay.conditions: male, Sprague-Dawley, rat, s9, Half-life (min)
Recorded half-life at 1 μM values for a group of compounds are listed next.

// solved cases for half-life at 1 μM follow
[[record]]
compound = "CCCCCCCCCCCCCCCC(=O)NCCOC(=O)CCC(=O)OCC(COC(=O)CCC)OC(=O)CCC (centres unmarked) [Compound I-11]"
reported_endpoint = "half-life at 1 μM"
result_value = "< 0.0167 h"

[[record]]
compound = "CCCCCCCCCCCCCCCC(=O)NCCOC(=O)CCC [Compound I-2]"
reported_endpoint = "half-life at 1 μM"
result_value = "< 0.0167 h"

[[record]]
compound = "CCCCC/C=C\\C/C=C\\CCCCCCCC(=O)OCCNC(=O)CCCCCCCCCCCCCCC [Compound I-6]"
reported_endpoint = "half-life at 1 μM"
result_value = "> 1 h"

[[record]]
compound = "CCCCCCCCCCCCCCCC(=O)NCCOC(=O)CCC(=O)OCC(COC(=O)CCCCCCC)OC(=O)CCCCCCC (centres unmarked) [Compound I-3, PEA-Succinate-Glycerol-Di-Caprylic]"
reported_endpoint = "half-life at 1 μM"
result_value = "> 1 h"


Next compound, please.
Please give the documented half-life at 1 μM of CC/C=C\C/C=C\C/C=C\C/C=C\C/C=C\CCCC(=O)OCCNC(=O)CCCCCCCCCCCCCCC [Compound I-5] > 1 h

Where these numbers come from: patent US11547681B2
